System: Fibroblast
Assay: Incucyte cell viability with human fibroblast; also: unitless GR value; below 1 slowed growth and below 0 cell loss
Type: toxicity, cell-based
Conditions: 24 h, 10 µM, compound concentration 10 uM, replicate number 2
Property Measured: Growth Rate

>  <Mol>
COc1cc(-c2cncc(-c3ccc(N4CCN(C(C)C)CC4)cc3)c2C)cc(F)c1C(=O)N1CCCC1

>  <Value Observed>
0.4

$$$$
>  <Mol>
O=C(Nc1ccc(N2CCC(C(=O)N3CCOCC3)CC2)cc1)c1cnc(Oc2ccccc2)nc1

>  <Value Observed>
0.78

$$$$

From here, focus on the item given below.
Exercise: Would you mind telling me what Growth Rate value was observed for COCCN1CCN(CCn2ccc(Nc3ncc4c(n3)-c3c(nn(C)c3-c3ccccc3)C[C@H]4C)n2)CC1 ?
Solution: 0.41

====

Tested on: Fibroblast
Experiment: Incucyte cell viability with human fibroblast; also: unitless GR value; below 1 slowed growth and below 0 cell loss
Type: toxicity, cell-based
Details: 0 h, 10 µM, compound concentration 10 uM, replicate number 1
Property Measured: Growth Rate
Lab note: record just the number, no unit beside it.

Below: 9 compounds and their reported Growth Rate.
>  <Compound>
N#Cc1cccc(-c2nc(-c3cccnc3)no2)c1

>  <Property Measured>
Growth Rate

>  <Value Observed>
-0.49

$$$$
>  <Compound>
CC(C)[C@@H]1CC[C@@H](C)C[C@@H]1P(=O)(c1ccccc1)c1ccccc1

>  <Property Measured>
Growth Rate

>  <Value Observed>
0.25

$$$$
>  <Compound>
Clc1ccccc1C(c1ccccc1)(c1ccccc1)n1ccnc1 [CLOTRIMAZOLE]

>  <Property Measured>
Growth Rate

>  <Value Observed>
0.95

$$$$
>  <Compound>
C[C@@H]1CC[C@@]2(OC1)O[C@H]1[C@@H](O)[C@H]3[C@@H]4CC[C@H]5C[C@@H](O[C@@H]6O[C@H](CO)[C@H](O[C@@H]7O[C@H](CO)C(O)[C@H](O[C@@H]8OC[C@@H](O)[C@H](O)[C@H]8O)[C@H]7O[C@@H]7O[C@H](CO)[C@H](O)[C@H](O[C@@H]8O[C@H](CO)[C@@H](O)[C@H](O)[C@H]8O)[C@H]7O)[C@H](O)[C@H]6O)[C@H](O)C[C@]5(C)[C@H]4CC[C@]3(C)[C@H]1[C@@H]2C (stereo not given in full) [DIGITONIN]

>  <Property Measured>
Growth Rate

>  <Value Observed>
0.3

$$$$
>  <Compound>
CNC1(C)C2CCC(C2)C1(C)C.Cl (stereo not given) [MECAMYLAMINE HYDROCHLORIDE]

>  <Property Measured>
Growth Rate

>  <Value Observed>
0.75

$$$$
>  <Compound>
CC(CNS(=O)(=O)C(C)C)c1ccc(-c2ccc(C#N)cc2)cc1 (stereo not given)

>  <Property Measured>
Growth Rate

>  <Value Observed>
0.04

$$$$
>  <Compound>
CSc1ccc(C(=O)/C=C/c2cc(C)c(OC(C)(C)C(=O)O)c(C)c2)cc1 [ELAFIBRANOR]

>  <Property Measured>
Growth Rate

>  <Value Observed>
0.61

$$$$
>  <Compound>
CCn1c(-c2ccncc2)cc2c1CCNC2=O

>  <Property Measured>
Growth Rate

>  <Value Observed>
-0.22

$$$$
>  <Compound>
CC(C)C(=O)N[C@@H]1CCN(C(=O)Nc2nc3c(s2)-c2nc(-c4ccccc4Cl)ncc2CC3)C1

>  <Property Measured>
Growth Rate

>  <Value Observed>
-0.95

$$$$

Exercise: Would you mind telling me what Growth Rate value was observed for c1ccc2nc(N3CCNCC3)ccc2c1 [QUIPAZINE] ?
Solution: 0.15

====

Test system: HEK-293T
Assay: Incucyte cell viability with HEK293T; also: unitless GR value; below 1 slowed growth and below 0 cell loss
Type: toxicity, cell-based
Conditions: human, 12 h, 10 µM, compound concentration 10 uM, replicate number 1
Property Measured: Growth Rate
Lab note: record just the number, no unit beside it.

Below: 4 compounds and their reported Growth Rate.
>  <Compound>
CN1CCN(C(=O)c2ccc(N(C)c3ncc(C(F)(F)F)c(N[C@@H]4CCC[C@@H]4C(N)=O)n3)cc2)CC1.Cl

>  <Value Observed>
0.91

$$$$
>  <Compound>
Cl.Cl.O=C1c2ccccc2C(Cc2ccncc2)(Cc2ccncc2)c2ccccc21

>  <Value Observed>
0.55

$$$$
>  <Compound>
CC(C)(O)c1cnc(N2C[C@@]3(CCC[C@](C)(Cn4cnc5ccc(C#N)cc54)C3)OC2=O)cn1

>  <Value Observed>
0.38

$$$$
>  <Compound>
COc1ccc(COc2ccc(Cc3cnc(N)nc3N)cc2OC)cc1 [GW632580X]

>  <Value Observed>
0.83

$$$$

From here, focus on the item given below.
Exercise: Would you mind telling me what Growth Rate value was observed for CC(=O)c1ccc2c(c1)/C(=C(/Nc1cccc(C#N)c1)c1ccc3c(c1)OCCO3)C(=O)N2 ?
Solution: -0.22

====

Tested on: U2OS
Test: Incucyte cell viability with U2OS; also: unitless GR value; below 1 slowed growth and below 0 cell loss
Format: toxicity, cell-based
Conditions: human, 12 h, 10 µM, compound concentration 10 uM, replicate number 2
Note to self: values exactly at 0.6 are Satisfied. So Growth Rate at or above 0.6 is Satisfied, below is Not satisfied.

Recorded results for 3 molecules are shown here.
>  <Molecule>
CC(C)(O)c1coc(S(=O)(=O)NC(=O)Nc2c3c(cc4c2CCC4)CCC3)c1

>  <Classification>
Satisfied

$$$$
>  <Molecule>
CC(=O)N(CCN(C)C)c1ccc(N/C(=C2\C(=O)Nc3cc(Cl)ccc32)c2ccccc2)cn1

>  <Classification>
Not satisfied

$$$$
>  <Molecule>
Clc1ccccc1C(c1ccccc1)(c1ccccc1)n1ccnc1

>  <Classification>
Satisfied

$$$$

Exercise: Reported Growth Rate at or above 0.6? O=C(Nc1ccc(-n2nc(-c3cccnc3)cc2C(F)(F)F)cn1)c1ccc(-c2ccccc2)c(F)c1
Solution: Satisfied

Exercise: Reported Growth Rate at or above 0.6? COC(=O)Nc1nc2c(s1)-c1c(c(-c3cccnc3)nn1-c1ccc(C3(N(C)C)CC3)cc1)CC2.Cl.Cl
Solution: Satisfied

Exercise: Reported Growth Rate at or above 0.6? O=C(O)CNC(=O)c1c(O)c2ccccc2n(Cc2ccccc2)c1=O
Solution: Satisfied

Exercise: Reported Growth Rate at or above 0.6? COc1ccc(CC(=O)NC(N/C(=N/C#N)Nc2cccc3ncccc23)C(C)(C)C)cc1OC (stereo not drawn)
Solution: Satisfied

Exercise: Reported Growth Rate at or above 0.6? CC1(C)CCC[C@]2(C)[C@@H](C=O)C(C=O)=CC[C@@H]12
Solution: Not satisfied

Exercise: Reported Growth Rate at or above 0.6? COc1cc2c(NC3CCN(C(C)C)CC3)nc(C3CCCCC3)nc2cc1OCCCN1CCCC1
Solution: Not satisfied

Exercise: Reported Growth Rate at or above 0.6? O=C(CNC(=O)c1ccc(-c2ccccc2)cc1)NC1CCCc2ccccc21 (stereo not drawn)
Solution: Satisfied

Exercise: Reported Growth Rate at or above 0.6? CC(=O)c1ccc2c(c1)/C(=C(/NC1CCN(C)CC1)c1ccc3c(c1)OCO3)C(=O)N2
Solution: Not satisfied

Exercise: Reported Growth Rate at or above 0.6? CCCN1C(=O)c2ccc(Cl)cc2Nc2ncccc21
Solution: Satisfied

Exercise: Reported Growth Rate at or above 0.6? CCNC(=O)c1ccc2c(c1)NC(=O)/C2=C(\Nc1ccc(CN(C)C)cc1)c1ccccc1
Solution: Satisfied

Exercise: Reported Growth Rate at or above 0.6? COc1ccccc1N1CCN(c2ncnc3c2cnn3-c2ccccc2)CC1
Solution: Satisfied

Exercise: Reported Growth Rate at or above 0.6? O=C(O)CCC/C=C\C[C@@H]1[C@@H](/C=C/[C@@H](O)COc2cccc(C(F)(F)F)c2)[C@H](O)C[C@@H]1O
Solution: Satisfied

Exercise: Reported Growth Rate at or above 0.6? CCC(=O)N[C@@H]1CC[C@H](C(=O)N(C)c2ccc(-c3nc4ccccc4o3)cc2)C1
Solution: Satisfied

Exercise: Reported Growth Rate at or above 0.6? COc1cc2ncnc(Nc3ccc(Oc4ccccc4)cc3C)c2cc1OC.Cl
Solution: Satisfied

====

Tested on: U2OS
Assay: Incucyte cell viability with U2OS; also: unitless GR value; below 1 slowed growth and below 0 cell loss
Assay type: toxicity, cell-based
Settings: human, 12 h, 10 µM, compound concentration 10 uM, replicate number 1
Property Measured: Growth Rate
Lab note: record just the number, no unit beside it.

>  <Mol>
Cc1[nH]c2c(N3CCCCC3)c(-c3ccccc3)nn2c(=O)c1-c1ccc(O)cc1

>  <Growth Rate>
0.9

$$$$
>  <Mol>
Cc1cc(OC2CCS(=O)(=O)CC2)cc(C)c1-c1cccc(COc2ccc(CCC(=O)O)c(F)c2)c1

>  <Growth Rate>
0.88

$$$$

From here, focus on the item given below.
Exercise: Would you mind telling me what Growth Rate value was observed for COc1cc2c(cc1CC=C(C)C)C(=O)C[C@@H](c1ccc(O)cc1)O2 ?
Solution: 0.89

====

Items are presented alongside their recorded Growth Rate.
System: U2OS
Experiment: Incucyte cell viability with U2OS; also: unitless GR value; below 1 slowed growth and below 0 cell loss
Format: toxicity, cell-based
Details: human, 18 h, 10 µM, compound concentration 10 uM, replicate number 2

Below: 5 molecules and their reported Growth Rate.
>  <Mol>
CN(C(=O)c1cnn2cccnc12)c1cc2c(cc1N1CCOCC1)C(=O)N(C[C@@H](F)C(C)(C)O)C2

>  <Value Observed>
0.92

$$$$
>  <Mol>
Cl.Cl.O=C1c2ccccc2C(Cc2ccncc2)(Cc2ccncc2)c2ccccc21

>  <Value Observed>
0.92

$$$$
>  <Mol>
Cl.Clc1ccc(OC[C@H]2CCN2)cn1

>  <Value Observed>
0.97

$$$$
>  <Mol>
CC(C)(O)[C@H]1CC[C@H](Nc2ccc3ncc(-c4cccc(C(F)(F)F)c4)n3n2)CC1

>  <Value Observed>
0.15

$$$$
>  <Mol>
CC(C)(O)C(=O)N1CCN(c2ccc(C(F)(F)F)c(C3=C(c4c[nH]c5ccccc45)C(=O)NC3=O)c2)CC1

>  <Value Observed>
0.8

$$$$

Exercise: Would you mind telling me what Growth Rate value was observed for O=C1NC(=Nc2c(Cl)cccc2Cl)S/C1=C\c1ccc2nccnc2c1 ?
Solution: 0.64
